This collection of values is drawn from paper PMC12509328.

- assayExplanation: Glucuronidation kinetics in human liver S9
- runConditions: human, human liver S9, pH 7.4
- Procedure: The glucuronidation kinetics of BPA, BPB, BPE, BPF, BPAF, and BPM were determined as described in the Supporting Information (Tables S6 and S7). Outliers were excluded using the Nalimov test. Supplementary information on glucuronidation kinetics measurement […] glucuronidation reaction was stopped by adding cold methanol (160 μL) and samples were kept at -20 °C for 1 h to precipitate proteins. […] Supernatants were analyzed using High-performance liquid chromatography (HPLC) with diode array detector (DAD). […]
assayMetric: Km (µM)
Field: numeric (µM). Do not append units.

Requested read-out: Km. Entry: CCC(C)(c1ccc(O)cc1)c1ccc(O)cc1 [BPB, Bisphenol B] 12.3
